Molecular target: FXR receptor (Homo sapiens)
Construct: expressed in transfected cells; host or cells: 293T cells
Sequence (Q96RI1 1-486): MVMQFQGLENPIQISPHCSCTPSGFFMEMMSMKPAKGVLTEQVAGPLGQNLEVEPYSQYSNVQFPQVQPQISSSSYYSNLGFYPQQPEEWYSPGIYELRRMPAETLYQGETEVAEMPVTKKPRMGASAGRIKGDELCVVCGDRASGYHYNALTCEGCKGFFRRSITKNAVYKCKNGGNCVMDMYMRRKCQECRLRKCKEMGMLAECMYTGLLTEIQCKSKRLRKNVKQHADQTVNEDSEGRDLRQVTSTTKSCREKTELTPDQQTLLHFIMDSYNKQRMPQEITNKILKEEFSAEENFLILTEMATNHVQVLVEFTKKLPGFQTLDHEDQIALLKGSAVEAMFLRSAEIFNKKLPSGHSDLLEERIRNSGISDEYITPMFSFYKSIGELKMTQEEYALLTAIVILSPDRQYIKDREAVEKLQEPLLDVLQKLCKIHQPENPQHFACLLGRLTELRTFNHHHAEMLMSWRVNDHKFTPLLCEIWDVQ
Experiment: FXR activity at the cell level (FXRE luciferase reporter in 293T cells)
Type: cell-based
Conditions: 10 μM, 293T cells, luciferase reporter, relative to OCA
Procedure: The cells were cultured for 24 hours to ensure plasmid expression. Then the FXR receptor agonist to be tested was added and acted for 18 hours. The fluorescence intensity was detected using luciferase kit (steady-Glo Luciferase Assay system) to reflect the compound's activation efficiency on the FXR receptor. […] The appropriate concentration interval was selected, and the dose-dependent relationship, that is, the EC50 value, was calculated.
OBSERVED PROPERTY: Activity relative to OCA (%) 10 μM
Note: unit % is implicit; provide only the numeric part.

# value of Activity relative to OCA (%) 10 μM, FXR receptor (Homo sapiens), item O=c1[nH]c(-c2ccc(N3CCC(OCc4c(-c5ccccc5C(F)(F)F)noc4C4CC4)CC3)cn2)no1 = 108

# value of Activity relative to OCA (%) 10 μM, FXR receptor (Homo sapiens), item Cn1cc(-c2noc(=O)[nH]2)c2cc(N3CCC(OCc4c(-c5c(Cl)cccc5Cl)noc4C4CC4)CC3)ccc21 = 132

# value of Activity relative to OCA (%) 10 μM, FXR receptor (Homo sapiens), item O=c1[nH]c(-c2ccc(N3CCC(OCc4c(-c5c(Cl)cccc5Cl)noc4-c4ccccc4)CC3)cc2)no1 = 63

# value of Activity relative to OCA (%) 10 μM, FXR receptor (Homo sapiens), item O=c1[nH]c(-c2ccc(N3C4CCC3CC(OCc3c(-c5c(Cl)cccc5Cl)noc3C3CC3)C4)nc2)no1 (stereo not shown) = 103

# value of Activity relative to OCA (%) 10 μM, FXR receptor (Homo sapiens), item Cc1cc(-c2noc(=O)[nH]2)ccc1N1CCC(OCc2c(-c3c(Cl)cccc3Cl)noc2C2CC2)CC1 = 159

# value of Activity relative to OCA (%) 10 μM, FXR receptor (Homo sapiens), item O=c1[nH]c(-c2ccc(N3C4CCC3CC(OCc3c(-c5ccccc5C(F)(F)F)noc3C3CC3)C4)nc2)no1 (stereo not shown) = 141

# value of Activity relative to OCA (%) 10 μM, FXR receptor (Homo sapiens), item O=c1[nH]c(-c2ccc(N3CCC(OCc4c(-c5ccccc5C(F)(F)F)noc4C4CC4)CC3)c(F)c2)no1 = 109
